Test system: PC-3 prostate
Assay: NCI-60 one-dose screen, 48 h
Conditions: 10 µM unless noted
About 83,000 compounds went through this panel and 20% of them were active in at least one assay; those are over-represented in the sample as a whole. Activity calls are given as the source filed them. The calls were made as follows: active = growth percent below 10; inactive = the rest.
Outcomes: active, inactive

                                   compound  assigned_category
0  CCCCCCCCCCCCCCCCCC1=NC(C)(C)CN1C(C)(C)CO             active
1  O=C(O)/C=C(\c1nc2ccc([N+](=O)[O-])cc2[nH]1)c1cc(Cl)ccc1O           inactive
2  COc1ccc(C2C3CCc4ccccc4C3=NN2C(=O)c2cc(OC)c(OC)c(OC)c2)cc1O (stereo not given)           inactive
3  Cc1ccc(N2C3c4ccccc4N(S(=O)(=O)c4ccc(C)cc4)C2c2ccccc2N3S(=O)(=O)c2ccc(C)cc2)cc1           inactive
4  COc1cc(C2C=C(C)N=C3SC=NN32)cc(OC)c1OC (stereo not given)           inactive

----------
Test system: SK-MEL-5 melanoma
Test: NCI-60 one-dose screen, 48 h (100 = growth as untreated, 0 = no growth, -100 = all killed)
Conditions: 10 µM unless noted
The panel holds about 83,000 compounds, 20% with a hit somewhere; the sample as a whole holds those more often.
readout_type: growth (%)

>>> print(df.to_string())
                                   compound  measured_result
0  COc1ccc(NC(=O)C2c3ccccc3C(=O)N(CC(C)C)C2c2cccs2)cc1 (stereo unspecified)             89.1
1           C/C(=N\NC(=S)Nc1ccccc1)c1ccccn1             16.5
2  O=C(CS)OCC(COC(=O)CS)(COC(=O)CS)COC(=O)CS              102
3  COc1ccc(-c2n[nH]nc2-c2cc(OC)c3c(c2)OCO3)cc1            -1.56
4          CCOC(=O)C(=CNc1ccccc1Cl)C(=O)OCC             77.1
5  CCCOC(=O)C1c2cc3c(cc2CC(C)C1C(=O)OCCC)OCO3 (stereo unspecified)             92.4

----------
growth reference
Test system: HCT-116 colon
Assay: NCI-60 one-dose screen, 48 h (100 = growth as untreated, 0 = no growth, -100 = all killed)
Conditions: 10 µM unless noted
Experimental: Growth inhibition of the HCT-116 human tumor cell line is measured as a screen for anti-cancer activity. Cells are grown in 96 well plates and exposed to the test compound for 48 hours. Compounds are tested at a single concentration, which is 10^-5 M for most compounds. The reported endpoint is percent growth (GI% or GIPRCNT), where numbers from 0 - 100% represent growth inhibition, and numbers from -100% - 0 represent cell death. For example, a value of 40 represents 60% growth inhibition. […]
This is part of a sample that, as a whole, favours compounds with a hit. Of some 83,000 tested, about 20% had one in any assay. Active and inactive are the calls of the source. How the source made its calls: active means growth percent below 10; inactive means the rest.
readout_type: growth

compound	readout_type	measured_result
Fc1ccc2nc(-c3ccc(-c4noc(-c5ccc(Cl)cc5)n4)cc3)[nH]c2c1	growth	95.6% (inactive)
CC(=O)N[C@@H](CCC(N)=O)C(=O)O	growth	96.3% (inactive)
COc1ccc2[nH]c(C(=O)OCc3ccc4c(Br)cc(Br)c(O)c4n3)cc2c1	growth	-74.8% (active)
C=C1NC(=O)C(C(C)CC)NC(=O)C2CSCC(NC(=O)CCC(=O)O)C(=O)NC(Cc3ccccc3)C(=O)NC(C)C(=O)NC(CC(C)CC)C(=O)NC(C(=O)NC(Cc3ccccc3)C(=O)N3CCCC3C(=O)N2)C(C)OC(=O)C(CO)NC(=O)C(C(O)COC)N(C)C(=O)C(C(C)C)NC(=O)C(CC(C)CC)NC1=O (stereo not drawn)	growth	6.69% [6 µM] (active)
CCCCc1n(Cc2ccc3ccccc3n2)cc[n+]1Cc1ccc2ccccc2n1	growth	9.88% (active)
COc1ccc(C2CC(c3cccc(Nc4ccnc5cc(Cl)ccc45)c3)=NN2c2ccc(Cl)cc2)cc1 (stereo not drawn)	growth	66.3% (inactive)
Cc1ccc(NC(=O)c2[nH]c(SCCN(C)C)nc2-c2ccc(F)cc2)cc1C#Cc1cnc2cccnn12	growth	-64.3% (active)
CN(C)c1ccc(C(c2ccccc2)c2ccc(N(C)C)cc2)cc1	growth	80.6% (inactive)

----------
Tested on: T-47D breast
Assay: NCI-60 one-dose screen, 48 h (100 = growth as untreated, 0 = no growth, -100 = all killed)
Conditions: 10 µM unless noted
The panel holds about 83,000 compounds, 20% with a hit somewhere; the sample as a whole holds those more often.
Each entry falls into one class according to its growth; the ranges are lo = under 40%, mid = from 40% up to 70%, hi = 70% and over

In [3]: df
Out[3]:
                                   compound  assigned_category
0  CCN(C)CCCOc1ccc(/C(=C(\C)Cc2cccc(OC)c2)c2ccc(OC(C)=O)cc2)cc1                 hi
1  O=C(/C=C/c1cc([N+](=O)[O-])ccc1Cl)c1ccccc1                 hi
2  CC(=O)[C@@]1(O)[C@H](C)C[C@H]2[C@@H]3C=C(C)C4=Cc5c(cnn5-c5ccccc5)C[C@]4(C)[C@H]3[C@@H](O)C[C@@]21C                mid
3  N#Cc1c(NN)n(C2OC(CO)C(O)C2O)c2ncnc(N)c12 (stereo not given)                 lo
4  COc1ccc(C2=CC(c3ccc(OC)cc3Br)N3C=CSC3=N2)cc1 (stereo not given)                mid
5          CCCCCCCCCC1=NC(C)(C)CN1C(C)(C)CO                 hi
6      Clc1ccc(Nc2ncnc3c2sc2ncccc23)c(Cl)c1                 lo
7       NC(=O)Nc1ccc2ncnc(Nc3cccc(O)c3)c2c1                 hi
8  CCN(CC)CCCC(C)Nc1cnc(C(=O)Nc2cc(C)cc3cccnc23)cn1 (stereo not given)                 lo

----------
Tested on: HOP-92 NSCLC
Assay: NCI-60 one-dose screen, 48 h (100 = growth as untreated, 0 = no growth, -100 = all killed)
Settings: 10 µM unless noted
Procedure: Growth inhibition of the HOP-92 human Non-Small Cell Lung tumor cell line is measured as a screen for anti-cancer activity. Cells are grown in 96 well plates and exposed to the test compound for 48 hours. Compounds are tested at a single concentration, which is 10^-5 M for most compounds. The reported endpoint is percent growth (GI% or GIPRCNT), where numbers from 0 - 100% represent growth inhibition, and numbers from -100% - 0 represent cell death. […]
Compounds without any hit were thinned out: in the full panel of roughly 83,000, 20% have a hit.
growth reference
readout_type: growth (%)

In [3]: df
Out[3]:
                              smiles_record  measured_result
0  CCN1CCN(Cc2ccc(NC(=O)c3nc4ccc5[nH]ncc5c4c4c3CCCC4)cc2C(F)(F)F)CC1             44.9
1           Clc1ccc2c(c1)-c1ccccc1C1=NCCN12             58.6
2  Cc1cc(C)c(C#N)c(SCC(=O)c2sc3c(C#N)c(C)cc(C)[n+]3c2[O-])n1             51.8
3       C/C(=N\OC(=O)Nc1cccc(Cl)c1)c1ccccc1              132
4  COc1ccc(-c2nn(-c3cccc(Cl)c3)cc2/C=C2\C(=N)N(c3ccccc3)N=C2N)cc1             96.2

----------
growth reference
System: A498 renal
Experiment: NCI-60 one-dose screen, 48 h (100 = growth as untreated, 0 = no growth, -100 = all killed)
Details: 10 µM unless noted
The panel holds about 83,000 compounds, 20% with a hit somewhere; the sample as a whole holds those more often.
readout_type: growth (%)

                               smiles_record  measured_result
 0   COS(=O)(=O)CCN(CCOS(C)(=O)=O)S(C)(=O)=O              115
 1  Cc1cc(C)c(C#N)c(SCC(=O)c2sc3c(C#N)c(C)cc(C)[n+]3c2[O-])n1            -6.21
 2   CCc1ccc(Nc2ncnc3c2cnn3-c2cccc(Br)c2)cc1             70.7
 3  CC(=O)c1cc(C(=O)c2ccc3c(c2)Sc2ccccc2N3)c2c(C)cccn12            -5.33
 4     N=c1n(Cc2ccccc2)c(N)cc(=O)n1Cc1ccccc1             40.6
 5                  COc1cccc(/C=N/N=C(N)N)c1               78
 6   O=c1cc(-c2ccc3c(c2)OCCO3)oc2cc(Cl)ccc12             8.97
 7  CS(=O)(=O)Nc1cc(-c2cc3ncc(C#N)c(Nc4ccc(Oc5ccccc5)c(Cl)c4)c3s2)cnc1Cl            -15.2
 8        O=[N+]([O-])c1cccc([I+]c2ccccc2)c1             40.5
 9  CC(=O)c1c(C)nc(-c2cc(C)cc(Cl)c2)nc1-c1cccc(Oc2ccccc2)c1             41.3
10          CCOC(=O)C(=CNc1ccccc1Cl)C(=O)OCC             5.74
